Recorded pIC50 values (ATP-dependent translocase ABCB1 (Homo sapiens)) are given below.
# pIC50 = -log10(concentration in molar units)

>>> meas_value("CC[C@H]1OC(=O)[C@H](C)[C@@H](O[C@H]2C[C@@](C)(OC)[C@@H](O)[C@H](C)O2)[C@H](C)[C@@H](O[C@@H]2O[C@H](C)C[C@H](N(C)C)[C@H]2O)[C@](C)(OC)C[C@@H](C)C(=O)[C@H](C)[C@@H](O)[C@]1(C)O")
4.30
>>> meas_value("CC[C@H]1CN2CCc3cc(OC)c(OC)cc3[C@@H]2C[C@@H]1C[C@H]1NCCc2cc(OC)c(OC)cc21")
3.94

Exam item: Could you please provide reported pIC50 for `COC(=O)[C@H]1[C@H]2C[C@@H]3c4[nH]c5cc(OC)ccc5c4CCN3C[C@H]2C[C@@H](OC(=O)c2cc(OC)c(OC)c(OC)c2)[C@@H]1OC` ? Thanks!
Marked response: 5.21

----------
Observed IC50 for ATP-dependent translocase ABCB1 (Homo sapiens), reported per entry below.
Number in µM, nothing else.

>>> meas_value("OCCN1CCN(CCCN2c3ccccc3Sc3ccc(C(F)(F)F)cc32)CC1 [FLUPHENAZINE]")
5.7

Exam item: Write down IC50 measured for item CC[C@H]1CN2CCc3cc(OC)c(OC)cc3[C@@H]2C[C@@H]1C[C@H]1NCCc2cc(OC)c(OC)cc21 [EMETINE]
Marked response: 2.4

Exam item: Report IC50 for CC(=O)O[C@H]1C(=O)[C@@]2(C)[C@H]([C@H](OC(=O)c3ccccc3)[C@]3(O)C[C@H](OC(=O)[C@H](O)[C@@H](NC(=O)c4ccccc4)c4ccccc4)C(C)=C1C3(C)C)[C@]1(OC(C)=O)CO[C@@H]1C[C@@H]2O [PACLITAXEL]
Marked response: 53.9

Exam item: Read off the recorded IC50 for C=C[C@@]1(C)CC(=O)[C@]2(O)[C@@]3(C)[C@@H](O)CCC(C)(C)[C@@H]3[C@H](O)[C@H](OC(C)=O)[C@@]2(C)O1 [COLFORSIN]
Marked response: 188

Exam item: Tell me measured IC50 for COc1ccc(CCNCCCC(C#N)(c2cc(OC)c(OC)c(OC)c2)C(C)C)cc1OC (configuration not stated) [N-Norgallopamil] please.
Marked response: 4.9

Exam item: Tell me IC50 reported for CC[C@H]1OC(=O)[C@H](C)[C@@H](O[C@H]2C[C@@](C)(OC)[C@@H](O)[C@H](C)O2)[C@H](C)[C@@H](O[C@@H]2O[C@H](C)C[C@H](N(C)C)[C@H]2O)[C@](C)(OC)C[C@@H](C)C(=O)[C@H](C)[C@@H](O)[C@]1(C)O [CLARITHROMYCIN]
Marked response: 7.2

Exam item: Quick one: give measured IC50 for COc1ccccc1OCCNCC(O)COc1cccc2[nH]c3ccccc3c12 (configuration not stated) [CARVEDILOL]
Marked response: 6

----------
pIC50 overview
Target or test system: UniProtKB P08183
Schema: pIC50 number; meaning minus log10 of the concentration expressed in molar units.

Sample answers from the record:
>>> meas_value("CC[C@H]1CN2CCc3cc(OC)c(OC)cc3[C@@H]2C[C@@H]1C[C@H]1NCCc2cc(OC)c(OC)cc21 [EMETINE]")
3.89
>>> meas_value("CC[C@H]1OC(=O)[C@H](C)[C@@H](O[C@H]2C[C@@](C)(OC)[C@@H](O)[C@H](C)O2)[C@H](C)[C@@H](O[C@@H]2O[C@H](C)C[C@H](N(C)C)[C@H]2O)[C@](C)(OC)C[C@@H](C)C(=O)[C@H](C)[C@@H](O)[C@]1(C)O [CLARITHROMYCIN]")
4.06

Moving on to the next molecule.
Exam item: Provide pIC50, system UniProtKB P08183, entry COC(=O)[C@H]1[C@H]2C[C@@H]3c4[nH]c5cc(OC)ccc5c4CCN3C[C@H]2C[C@@H](OC(=O)c2cc(OC)c(OC)c(OC)c2)[C@@H]1OC [RESERPINE]
Marked response: 5.68

----------
The reader will find IC50 measurements below, all made with ATP-dependent translocase ABCB1 (Homo sapiens, UniProt P08183).
Sequence (P08183 whole entry): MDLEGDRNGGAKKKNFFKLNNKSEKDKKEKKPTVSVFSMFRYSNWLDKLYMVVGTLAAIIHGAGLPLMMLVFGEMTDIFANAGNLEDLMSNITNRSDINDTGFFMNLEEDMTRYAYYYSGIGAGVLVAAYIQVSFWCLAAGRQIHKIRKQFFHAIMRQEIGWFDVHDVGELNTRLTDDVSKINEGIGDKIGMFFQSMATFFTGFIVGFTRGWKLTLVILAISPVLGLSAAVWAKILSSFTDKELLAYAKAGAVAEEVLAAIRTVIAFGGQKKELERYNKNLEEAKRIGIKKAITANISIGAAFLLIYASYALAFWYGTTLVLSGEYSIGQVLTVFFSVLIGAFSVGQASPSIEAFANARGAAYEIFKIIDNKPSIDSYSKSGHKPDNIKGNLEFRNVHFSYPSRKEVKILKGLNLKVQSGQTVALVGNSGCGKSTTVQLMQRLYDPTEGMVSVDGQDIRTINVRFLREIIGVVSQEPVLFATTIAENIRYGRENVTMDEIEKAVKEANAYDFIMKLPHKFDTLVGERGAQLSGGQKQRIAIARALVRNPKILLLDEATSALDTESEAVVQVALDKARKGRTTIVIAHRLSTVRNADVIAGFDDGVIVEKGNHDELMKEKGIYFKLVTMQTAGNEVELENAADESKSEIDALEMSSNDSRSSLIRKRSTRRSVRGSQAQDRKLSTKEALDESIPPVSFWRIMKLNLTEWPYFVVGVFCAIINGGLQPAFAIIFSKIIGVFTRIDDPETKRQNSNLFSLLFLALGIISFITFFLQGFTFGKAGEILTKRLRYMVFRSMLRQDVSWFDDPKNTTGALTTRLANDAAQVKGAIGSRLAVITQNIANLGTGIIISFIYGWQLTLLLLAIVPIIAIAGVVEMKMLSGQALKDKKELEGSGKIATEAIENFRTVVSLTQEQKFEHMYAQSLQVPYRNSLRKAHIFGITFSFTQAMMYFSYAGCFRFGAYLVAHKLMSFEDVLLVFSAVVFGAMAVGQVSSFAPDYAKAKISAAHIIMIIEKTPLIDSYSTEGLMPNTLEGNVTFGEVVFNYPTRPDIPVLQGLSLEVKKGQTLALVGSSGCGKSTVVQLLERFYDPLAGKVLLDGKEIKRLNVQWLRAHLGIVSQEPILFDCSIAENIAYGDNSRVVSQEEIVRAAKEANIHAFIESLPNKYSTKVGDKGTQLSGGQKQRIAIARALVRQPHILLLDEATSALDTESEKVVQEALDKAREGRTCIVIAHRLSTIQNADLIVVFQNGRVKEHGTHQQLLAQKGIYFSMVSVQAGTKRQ
Please give a number only; it is taken to be in µM.

A selection of reference data follows.
>>> meas_value("CC(=O)O[C@H]1C(=O)[C@@]2(C)[C@H]([C@H](OC(=O)c3ccccc3)[C@]3(O)C[C@H](OC(=O)[C@H](O)[C@@H](NC(=O)c4ccccc4)c4ccccc4)C(C)=C1C3(C)C)[C@]1(OC(C)=O)CO[C@@H]1C[C@@H]2O")
70.2
>>> meas_value("CC[C@H]1CN2CCc3cc(OC)c(OC)cc3[C@@H]2C[C@@H]1C[C@H]1NCCc2cc(OC)c(OC)cc21")
9.6
>>> meas_value("COc1ccccc1OCCNCC(O)COc1cccc2[nH]c3ccccc3c12 (stereo not drawn)")
6.6
>>> meas_value("CC[C@H]1OC(=O)[C@H](C)[C@@H](O[C@H]2C[C@@](C)(OC)[C@@H](O)[C@H](C)O2)[C@H](C)[C@@H](O[C@@H]2O[C@H](C)C[C@H](N(C)C)[C@H]2O)[C@](C)(OC)C[C@@H](C)C(=O)[C@H](C)[C@@H](O)[C@]1(C)O")
15.1
>>> meas_value("COC(=O)[C@H]1[C@H]2C[C@@H]3c4[nH]c5cc(OC)ccc5c4CCN3C[C@H]2C[C@@H](OC(=O)c2cc(OC)c(OC)c(OC)c2)[C@@H]1OC")
3.9
>>> meas_value("CC(C)/N=c1\\cc2n(-c3ccc(Cl)cc3)c3ccccc3nc-2cc1Nc1ccc(Cl)cc1")
1

Exam item: Please respond with reported IC50 (system ATP-dependent translocase ABCB1 (Homo sapiens, UniProt P08183)) for `OCCN1CCN(CCCN2c3ccccc3Sc3ccc(C(F)(F)F)cc32)CC1` .
Marked response: 10.4

Exam item: Under ATP-dependent translocase ABCB1 (Homo sapiens, UniProt P08183), report IC50 for COc1ccc(CCNCCCC(C#N)(c2cc(OC)c(OC)c(OC)c2)C(C)C)cc1OC (stereo not drawn)
Marked response: 8.6

----------
ATP-dependent translocase ABCB1 (Homo sapiens): reported pIC50 for various molecules.
Recall that pIC50 is obtained by taking minus log10 of the concentration measured in molar.

>>> meas_value("COc1ccc(CCNCCCC(C#N)(c2cc(OC)c(OC)c(OC)c2)C(C)C)cc1OC (stereo not given)")
5.44
>>> meas_value("CC(=O)O[C@H]1C(=O)[C@@]2(C)[C@H]([C@H](OC(=O)c3ccccc3)[C@]3(O)C[C@H](OC(=O)[C@H](O)[C@@H](NC(=O)c4ccccc4)c4ccccc4)C(C)=C1C3(C)C)[C@]1(OC(C)=O)CO[C@@H]1C[C@@H]2O")
4.27
>>> meas_value("OCCN1CCN(CCCN2c3ccccc3Sc3ccc(C(F)(F)F)cc32)CC1")
5.19
>>> meas_value("c1ccc([P+](c2ccccc2)(c2ccccc2)c2ccccc2)cc1")
3.31
>>> meas_value("CC[C@H]1CN2CCc3cc(OC)c(OC)cc3[C@@H]2C[C@@H]1C[C@H]1NCCc2cc(OC)c(OC)cc21")
5.04
>>> meas_value("C=C[C@@]1(C)CC(=O)[C@]2(O)[C@@]3(C)[C@@H](O)CCC(C)(C)[C@@H]3[C@H](O)[C@H](OC(C)=O)[C@@]2(C)O1")
4.10
>>> meas_value("CC[C@H]1OC(=O)[C@H](C)[C@@H](O[C@H]2C[C@@](C)(OC)[C@@H](O)[C@H](C)O2)[C@H](C)[C@@H](O[C@@H]2O[C@H](C)C[C@H](N(C)C)[C@H]2O)[C@](C)(OC)C[C@@H](C)C(=O)[C@H](C)[C@@H](O)[C@]1(C)O")
5.42
>>> meas_value("COc1ccccc1OCCNCC(O)COc1cccc2[nH]c3ccccc3c12 (stereo not given)")
5.34

Exam item: Given `CC(C)/N=c1\cc2n(-c3ccc(Cl)cc3)c3ccccc3nc-2cc1Nc1ccc(Cl)cc1` , respond with its pIC50.
Marked response: 6.22

Exam item: Give pIC50 for the following molecule: `COC(=O)[C@H]1[C@H]2C[C@@H]3c4[nH]c5cc(OC)ccc5c4CCN3C[C@H]2C[C@@H](OC(=O)c2cc(OC)c(OC)c(OC)c2)[C@@H]1OC`
Marked response: 6.30

----------
Below, each entry is listed alongside its reported IC50.
Target or test system: ATP-dependent translocase ABCB1 (Homo sapiens)
Express your answer in µM, writing the number without its unit.

>>> meas_value("CC(C)/N=c1\\cc2n(-c3ccc(Cl)cc3)c3ccccc3nc-2cc1Nc1ccc(Cl)cc1")
1.1

Exam item: # assay system ATP-dependent translocase ABCB1 (Homo sapiens): give IC50 of `c1ccc([P+](c2ccccc2)(c2ccccc2)c2ccccc2)cc1`
Marked response: 427

Exam item: Report the value of IC50 obtained on ATP-dependent translocase ABCB1 (Homo sapiens) for `COC(=O)[C@H]1[C@H]2C[C@@H]3c4[nH]c5cc(OC)ccc5c4CCN3C[C@H]2C[C@@H](OC(=O)c2cc(OC)c(OC)c(OC)c2)[C@@H]1OC` .
Marked response: 2.1
